Quick reference for viability, T/C among some molecules
tested on: 186277-243-T-J2-PDC multi-cell spheroid viability; assay: Anticancer human tumor 186277-243-T-J2-PDC patient-derived colon adenocarcinoma cell line growth inhibition [PI3K]; settings: second compound 0.0316 µM; first compound 1 µM; active compounds read low
Use % as the unit, but write only the number.

What does the record list as viability, T/C for Cn1ncc(Cl)c1-c1cc(C(=O)NC(CN)Cc2cccc(F)c2)sc1Cl (stereo not drawn) + Cc1nc(NC(=O)N2CCCC2C(N)=O)sc1-c1ccnc(C(C)(C)C(F)(F)F)c1 ?
47.8

Same again, this time with CC(Cn1ccc(-c2ccc(C#N)c(Cl)c2)n1)NC(=O)c1cc(C(C)O)[nH]n1 (stereo not drawn) + Cc1nc(NC(=O)N2CCCC2C(N)=O)sc1-c1ccnc(C(C)(C)C(F)(F)F)c1
93

Same again, this time with CC1(C)CCC(CN2CCN(c3ccc(C(=O)NS(=O)(=O)c4ccc(NCC5CCOCC5)c([N+](=O)[O-])c4)c(Oc4cnc5[nH]ccc5c4)c3)CC2)=C(c2ccc(Cl)cc2)C1 + Cc1nc(NC(=O)N2CCCC2C(N)=O)sc1-c1ccnc(C(C)(C)C(F)(F)F)c1
89.9

* * *

test system: 186277-243-T-J2-PDC multi-cell spheroid viability; experiment: Anticancer human tumor 186277-243-T-J2-PDC cell line growth inhibition [PI3K]; conditions: second compound 0.0316 µM; first compound 0.0316 µM; active compounds read low;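 also: spheroids exposed to compounds for seven days before viability reading; 100% = DMSO vehicle control viability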
QUANTITY: viability, T/C (%)
Use % as the unit, but write only the number.

{"columns": ["MOLECULE", "viability, T/C [%]"],
 "data": [
  ["CNC(=O)c1ccc(N2C(=S)N(c3ccc(C#N)c(C(F)(F)F)c3)C(=O)C2(C)C)cc1F + CC(Nc1ncnc2nc[nH]c12)c1cc2cccc(Cl)c2c(=O)n1-c1ccccc1", 100],
  ["Cn1nccc1Nc1nccc(-c2ccn(C(CO)c3ccc(Cl)c(F)c3)c(=O)c2)n1 (stereo not drawn) + COc1c(OCCCN2CCOCC2)ccc2c3n(c(=NC(=O)c4cnc(N)nc4)nc12)CCN3", 47.2]
]}

Kindly consider the entry below.
What does the record list as viability, T/C for C[C@@H](NC(=O)c1ncnc(N)c1Cl)c1ncc(C(=O)Nc2cc(C(F)(F)F)c(Cl)cn2)s1 + CC(Nc1ccc2c(c1)OCCn1cc(N3C(=O)OCC3C(F)F)nc1-2)C(N)=O ?
98.6

* * *

Test system: 186277-243-T-J2-PDC multi-cell spheroid viability
Assay: Anticancer human tumor 186277-243-T-J2-PDC cell line growth inhibition [PI3K];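 also: spheroids exposed to compounds for seven days before viability reading; 100% = DMSO vehicle control viability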
Conditions: second compound 0.0316 µM; first compound 0.316 µM; active compounds read low
Description: Combinatorial screen of targeted agents with the PI3K inhibitors inavolisib, alpelisib, duvelisib, and copanlisib in multi-cell type tumor spheroids A high-throughput screen of multi-cell type tumor spheroids was designed to identify active combinations of targeted small molecules and PI3K pathway inhibitors. […] Compounds. […] If the clinical Cmax for an agent had not been determined, the highest concentration tested was 10 microM. […]
QUANTITY: viability, T/C (%)
Use % as the unit, but write only the number.

Worked examples follow.
{"columns": ["COMPOUND", "TESTED_SYSTEM", "NUMERIC_READOUT"],
 "data": [
  ["CC1(C)CCC(Nc2ncc(C(F)(F)F)c(-c3c[nH]c4c(P(C)(C)=O)c(C#N)ccc34)n2)CN1 (stereo not given) + Cc1nc(NC(=O)N2CCCC2C(N)=O)sc1-c1ccnc(C(C)(C)C(F)(F)F)c1", "186277-243-T-J2-PDC multi-cell spheroid viability", 57.9],
  ["C=CC(=O)N1CCN(c2nc(=O)n(-c3c(C)ccnc3C(C)C)c3nc(-c4c(O)cccc4F)c(F)cc23)C(C)C1 (stereo not given) + CC(Nc1ncnc2nc[nH]c12)c1cc2cccc(Cl)c2c(=O)n1-c1ccccc1", "186277-243-T-J2-PDC multi-cell spheroid viability", 91.8],
  ["CC(Cn1ccc(-c2ccc(C#N)c(Cl)c2)n1)NC(=O)c1cc(C(C)O)[nH]n1 (stereo not given) + CC(Nc1ncnc2nc[nH]c12)c1cc2cccc(Cl)c2c(=O)n1-c1ccccc1", "186277-243-T-J2-PDC multi-cell spheroid viability", 101],
  ["CC1(C)CCC(CN2CCN(c3ccc(C(=O)NS(=O)(=O)c4ccc(NCC5CCOCC5)c([N+](=O)[O-])c4)c(Oc4cnc5[nH]ccc5c4)c3)CC2)=C(c2ccc(Cl)cc2)C1 + CC(Nc1ncnc2nc[nH]c12)c1cc2cccc(Cl)c2c(=O)n1-c1ccccc1", "186277-243-T-J2-PDC multi-cell spheroid viability", 95]
]}

Kindly consider the entry below.
What does the record list as viability, T/C for CC1(C)CCC(CN2CCN(c3ccc(C(=O)NS(=O)(=O)c4ccc(NCC5CCOCC5)c([N+](=O)[O-])c4)c(Oc4cnc5[nH]ccc5c4)c3)CC2)=C(c2ccc(Cl)cc2)C1 + CC(Nc1ccc2c(c1)OCCn1cc(N3C(=O)OCC3C(F)F)nc1-2)C(N)=O ?
99.4
